Some compounds, each annotated with its measured PDI.
experimentalDetails: LNP size and PDI by dynamic light scattering
Type: physicochemical
setupConditions: mRNA LNP, cationic lipid/DSPC/cholesterol/PEG-lipid 50:10:38.5:1.5
assayEndpoint: PDI

compound	quantitativeResult
CCCCCCCCNC(=O)C(CCCCC)N(CCCN(C)C)C(=O)CCCCCCC(=O)OC(CCCCCCCC)CCCCCCCC (stereo not drawn) [Compound A28]	0.15
CCCCCCCCNC(=O)C(CCCCCCC)N(CCCN(C)C)C(=O)CCCCCCC(=O)OC(CCCCCCCC)CCCCCCCC (stereo not drawn) [Compound A30]	0.12
CCCCCCCC(C(=O)NCCCCCCCCCC(=O)OC(CCCCCC)CCCCCC)N(CCOC(=O)CCN(C)C)C(=O)CCCCCCCCCC(=O)OC(CCCCCC)CCCCCC (stereo not drawn) [Compound B24]	0.245
CCCCCCCC(C(=O)NCCCCCCCCCC(=O)OC(CCCCCC)CCCCCC)N(CCCNC(=S)N(C)C)C(=O)CCCCCCCCCC(=O)OC(CCCCCC)CCCCCC (stereo not drawn) [Compound B21]	0.388
CCCCCCCC(C(=O)NCCCCCCCCCC(=O)OC(CCCCCC)CCCCCC)N(CCN1CCN(CCO)CC1)C(=O)CCCCCCCCCC(=O)OC(CCCCCC)CCCCCC (stereo not drawn) [Compound B16]	0.593
CCCCCCCC(C(=O)NCCCCCCCCCC(=O)OC(CCCCCC)CCCCCC)N(CCCN1CCCC1)C(=O)CCCCCCCCCC(=O)OC(CCCCCC)CCCCCC (stereo not drawn) [Compound A2]	0.153

---

Quick reference: Zeta potential (mV) of the listed items.
experimentalDetails: LNP zeta potential
Assay type: physicochemical
setupConditions: mRNA LNP
Excerpt: Nanoparticle compositions can be characterized by various methods. For example, the morphology and size distribution of nanoparticle compositions can be examined using microscopy (e.g., transmission electron microscopy or scanning electron microscopy). The zeta potential can be measured using dynamic light scattering or potentiometric titration. Dynamic light scattering can also be used to determine particle size. […]

molecule	Zeta potential (mV)
CCCCCCC(CCCCCC)OC(=O)CCCCCCCCCNC(=O)C(CCCCCCCCCC(=O)OC(CCCCCC)CCCCCC)N(CCCN(CCO)CCO)C(=O)CCCN(CC)CC (stereo not drawn)	5.03
CCCCCCCCC(C(=O)NCCCCCCCCCC(=O)OCC12CC3CC(CC(C3)C1)C2)N(CCCN(C)C)C(=O)CCCCCCCCCC(=O)OC(CCCCCC)CCCCCC (stereo not drawn)	−15.20
CCCCCCCC(C(=O)NCCCCCCCCCC(=O)OC(CCCCCC)CCCCCC)N(CCN(CCO)C1CCCCC1)C(=O)CCCCCCCCCC(=O)OC(CCCCCC)CCCCCC (stereo not drawn)	2.43
CCCCCCCCC(CCCCCC)COC(=O)CCCCCCCCCNC(=O)C(CCCCCCCC)N(CCCN(C)C)C(=O)CCCCCCCCCC(=O)OCC(CCCCCC)CCCCCCCC (stereo not drawn)	4.02
CCCCCCCCNC(=O)C(CCCCCCCC)N(CCCN(C)CCO)C(=O)CCCCCCC(=O)OC(CCCCCCCC)CCCCCCCC (stereo not drawn)	3.81
CCCCCCCC(C(=O)NCCCCCCCCCC(=O)OC(CCCCCC)CCCCCC)N(CCNCCO)C(=O)CCCCCCCCCC(=O)OC(CCCCCC)CCCCCC (stereo not drawn)	−0.39

---

Reported values of Size (nm) for individual entries
experimentalDetails: LNP size and PDI by dynamic light scattering
Type: physicochemical
setupConditions: mRNA LNP, cationic lipid/DSPC/cholesterol/PEG-lipid 50:10:38.5:1.5

compound	Size (nm)
CCCCCCCC(C(=O)NCCCCCCCCCC(=O)OC(CCCCCC)CCCCCC)N(CCCN(C)C)C(=O)CCCCCCCCCC(=O)OC(CCCCCC)CCCCCC (stereo not drawn)	63.48
CCCCCCCC(C(=O)NCCCCCCCCCC(=O)OC(CCCCCC)CCCCCC)N(CCCN(CCO)C1CCC1)C(=O)CCCCCCCCCC(=O)OC(CCCCCC)CCCCCC (stereo not drawn)	66.9
CCCCCCCC(C(=O)NCCCCCCCCCC(=O)OC(CCCCCC)CCCCCC)N(CCCN1CCCC1)C(=O)CCCCCCCCCC(=O)OCC12CC3CC(CC(C3)C1)C2 (stereo not drawn)	62.53
CCCCCCCCNC(=O)C(CCCCCCCC)N(CCCN1CCCC1)C(=O)CCCCCCC(=O)OC(CCCCCCCC)CCCCCCCC (stereo not drawn)	79.52
CCCCCCCCNC(=O)C(CCCCCCCC)N(CCCCN(C)C)C(=O)CCCCCCC(=O)OC(CCCCCCCC)CCCCCCCC (stereo not drawn)	74.92
CCCCCCCCC(C(=O)NCCCCCCCCCC(=O)OC(CCCC)CCCCCC)N(CCCN(C)C)C(=O)CCCCCCCCCC(=O)OC(CCCC)CCCCCC (stereo not drawn)	118.5
CCCCCCCC(C(=O)NCCCCCCCCCC(=O)OC(CCCCCC)CCCCCC)N(CCCN1CCN(CCO)CC1)C(=O)CCCCCCCCCC(=O)OC(CCCCCC)CCCCCC (stereo not drawn)	64.2
CCCCCCCCNC(=O)C(CCCCCC)N(CCCN(C)C)C(=O)CCCCCCC(=O)OC(CCCCCCCC)CCCCCCCC (stereo not drawn)	94.71
CCCCCCCCC(C(=O)NCCCCCCCCCC(=O)OCCCCCC)N(CCCN(CCO)CCO)C(=O)CCCCCCCCCC(=O)OC(CCCCCC)CCCCCC (stereo not drawn)	85.75
CCCCCCCC(C(=O)NCCCCCCCCCC(=O)OC(CCCCCC)CCCCCC)N(CCCNc1c(NC)c(=O)c1=O)C(=O)CCCCCCCCCC(=O)OC(CCCCCC)CCCCCC (stereo not drawn)	141.8
CCCCCCCC(C(=O)NCCCCCCCCCC(=O)OC(CCCCCC)CCCCCC)N(CCN(CCO)C1CCCCC1)C(=O)CCCCCCCCCC(=O)OC(CCCCCC)CCCCCC (stereo not drawn)	87.64
CCCCCCCCC(C(=O)NCCCCCCCCCC(=O)OCCCCCC)N(CCCN1CCCC1)C(=O)CCCCCCCCCC(=O)OC(CCCCCC)CCCCCC (stereo not drawn)	60.62

---

experimentalDetails: LNP zeta potential
Format: physicochemical
setupConditions: mRNA LNP

compound	Zeta potential (mV)
CCCCCCCCC(C(=O)NCCCCCCCCCC(=O)OCC12CC3CC(CC(C3)C1)C2)N(CCCN1CCCC1)C(=O)CCCCCCCCCC(=O)OC(CCCCCC)CCCCCC (centres unmarked) [Compound A8]	−19.03
CCCCCCCCCCOCCCCCCCC(=O)N(CCCN(C)C)C(CCCCCCCC)C(=O)NCCCCCC(=O)OC(CCCCCCCC)CCCCCCCC (centres unmarked) [Compound A41]	−10.28
CCCCC/C=C\C/C=C\CCCCCCCCNC(=O)C(CCCCCCCC)N(CCCCCCCC/C=C\C/C=C\CCCCC)C(=O)CCCN1CCN(C)CC1 (centres unmarked) [Compound C5]	−14.75
CCCCCCC(CCCCCC)OC(=O)CCCCCCCCCNC(=O)C(CCCCCCCCCC(=O)OC(CCCCCC)CCCCCC)N(CCCN(CCO)CCO)C(=O)CCCN(C)C (centres unmarked) [Compound E3]	−2.06
CCCCCCCC(C(=O)NCCCCCCCCCC(=O)OC(CCCCCC)CCCCCC)N(CCCN(CCO)C1CCCC1)C(=O)CCCCCCCCCC(=O)OC(CCCCCC)CCCCCC (centres unmarked) [Compound B12]	−9.02

---

Measured Zeta potential (mV), listed per entry.
experimentalDetails: LNP zeta potential
Type: physicochemical
setupConditions: mRNA LNP

compound	Zeta potential (mV)
CCCCCCCC(C(=O)NCCCCCCCCCC(=O)OC(CCCCCC)CCCCCC)N(CCCN(C)C)C(=O)CCCCCCCCCC(=O)OCC1CC=CCC1 (stereo not drawn)	−0.20
CCCCCCCCC(C(=O)NCCCCCCCCCC(=O)OCCCCCC)N(CCCN(CCO)CCO)C(=O)CCCCCCCCCC(=O)OC(CCCCCC)CCCCCC (stereo not drawn)	−6.91
CCCCC/C=C\C/C=C\CCCCCCCCC(CCCCCCCC/C=C\C/C=C\CCCCC)OC(=O)CCCN(C)C [DLin-MC3, reference compound]	−3.25

---

Reported PDI values follow for various compounds
experimentalDetails: LNP size and PDI by dynamic light scattering
Assay type: physicochemical
setupConditions: mRNA LNP, cationic lipid/DSPC/cholesterol/PEG-lipid 50:10:38.5:1.5
Description: In summary, the cationic lipid described herein, DSPC, cholesterol, and PEG-lipid were dissolved in ethanol at a molar ratio of 50:10:38.5:1.5 and diluted in 10 mM to 50 mM citrate buffer at pH 4 with mRNA. […] The size of lipid nanoparticles was measured by dynamic light scattering using a Malvern Zetasizer Nano ZS (Malvern, UK) with a 90° scattering detection mode. […]

compound	PDI
CCCCCCCCNC(=O)C(CCCCCCCC)N(CCCN(C)C)C(=O)CCCCCC(=O)NC(CCCCCCC)CCCCCCC (stereo not shown) [Compound A32]	0.13
CCCCCCCC(C(=O)NCCCCCCCCCC(=O)OC(CCCCCC)CCCCCC)N(CCNCCO)C(=O)CCCCCCCCCC(=O)OC(CCCCCC)CCCCCC (stereo not shown) [Compound B6]	0.183
CCCCCCCCNC(=O)C(CCCCCCCC)N(CCCN(C)CCO)C(=O)CCCCCCC(=O)OC(CCCCCCCC)CCCCCCCC (stereo not shown) [Compound B30]	0.08
CCCCCCCCNC(=O)C(CCCCCCCC)N(CCN(CCO)CCO)C(=O)CCCCCCC(=O)OC(CCCCCCCC)CCCCCCCC (stereo not shown) [Compound B32]	0.32
CCCCC/C=C\C/C=C\CCCCCCCCNC(=O)C(CCCCCCCC)N(CCCCCCCC/C=C\C/C=C\CCCCC)C(=O)CCCN1CCN(C)CC1 (stereo not shown) [Compound C5]	0.198
CCCCCCC(CCCCCC)OC(=O)CCCCCCCCCNC(=O)C(CCCCCCCCCC(=O)OC(CCCCCC)CCCCCC)N(CCCN1CCCC1)C(=O)CCCN1CCCC1 (stereo not shown) [Compound E8]	0.182
CCCCCCCCC(C(=O)NCCCCCCCCCC(=O)OCCCCCC)N(CCCN1CCCC1)C(=O)CCCCCCCCCC(=O)OC(CCCCCC)CCCCCC (stereo not shown) [Compound A5]	0.13
CCCCCCCCNC(=O)C(CCCCCCCC)N(CCC1CCCN1C)C(=O)CCCCCCC(=O)OC(CCCCCCCC)CCCCCCCC (stereo not shown) [Compound A34]	0.11
CCCCCCCC(C(=O)NCCCCCCCCCC(=O)OC(CCCCCC)CCCCCC)N(CCCN(CCO)CCO)C(=O)CCCCCCCCCC(=O)OCC1CC=CCC1 (stereo not shown) [Compound B5]	0.163
CCCCCCCCC(C(=O)NCCCCCCCCCC(=O)OC(CCCCCC)CCCCCC)N(CCCN(C)C)C(=O)CCCCCCCCCC(=O)OC(CCCCCC)CCCCCC (stereo not shown) [Compound A11]	0.075
CCCCCCCCC(C(=O)NCCCCCCCCCC(=O)OCC12CC3CC(CC(C3)C1)C2)N(CCCN1CCCC1)C(=O)CCCCCCCCCC(=O)OC(CCCCCC)CCCCCC (stereo not shown) [Compound A8]	0.16
CCCCCCCCC(C(=O)NCCCCCCCCCC(=O)OCCCCCC)N(CCCN(C)C)C(=O)CCCCCCCCCC(=O)OC(CCCCCC)CCCCCC (stereo not shown) [Compound A15]	0.251
CCCCCCCCC(C(=O)NCCCCCCCCCC(=O)OCCCCCC)N(CCCN1CCCC1)C(=O)CCCCCCCCCC(=O)OCCCCCC (stereo not shown) [Compound A6]	0.234
CCCCCCCCC(C(=O)NCCCCCCCCCC(=O)OC(CCCC)CCCCCC)N(CCCN(C)C)C(=O)CCCCCCCCCC(=O)OC(CCCC)CCCCCC (stereo not shown) [Compound A13]	0.157
CCCCCCCCNC(=O)C(CCCCCCCC)N(CCCCN(C)C)C(=O)CCCCCCC(=O)OC(CCCCCCCC)CCCCCCCC (stereo not shown) [Compound A35]	0.19
CCCCCCCC(C(=O)NCCCCCCCCCC(=O)OC(CCCCCC)CCCCCC)N(CCCn1ccnc1)C(=O)CCCCCCCCCC(=O)OC(CCCCCC)CCCCCC (stereo not shown) [Compound B20]	0.391
CCCCCCCCCCOCCCCCCCC(=O)N(CCCN(C)C)C(CCCCCCCC)C(=O)NCCCCCC(=O)OC(CCCCCCCC)CCCCCCCC (stereo not shown) [Compound A41]	0.66
CCCCC/C=C\C/C=C\CCCCCCCC(=O)N(CCCN1CCCC1)CC(=O)NCCCCCCCCCCCCCC [Compound A21]	0.071
CCCCCCC(CCCCCC)OC(=O)CCCCCCCCCNC(=O)C(CCCCCCCCCC(=O)OC(CCCCCC)CCCCCC)N(CCCN(CC)CC)C(=O)CCCN(CC)CC (stereo not shown) [Compound E7]	0.13
CCCCC/C=C\C/C=C\CCCCCCCCC(CCCCCCCC/C=C\C/C=C\CCCCC)OC(=O)CCCN(C)C [DLin-MC3, reference compound]	0.036
CCCCCCCCNC(=O)C(CCCCCCCC)N(CCCN(CC)CC)C(=O)CCCCCCC(=O)OC(CCCCCCCC)CCCCCCCC (stereo not shown) [Compound A33]	0.10
CCCCCCC(CCCCCC)OC(=O)CCCCCCCCCNC(=O)C(CCCCCCCCCC(=O)OC(CCCCCC)CCCCCC)N(CCCN1CCN(C)CC1)C(=O)CCCN1CCN(C)CC1 (stereo not shown) [Compound E9]	0.593
CCCCCCCCNC(=O)C(CCCCCCCC)N(CCN(CC)CCO)C(=O)CCCCCCC(=O)OC(CCCCCCCC)CCCCCCCC (stereo not shown) [Compound B29]	0.10
CCCCCCCCC(C(=O)NCCCCCCCCCC(=O)OC(CCCCCC)CCCCCC)N(CCCN1CCCC1)C(=O)CCCCCCCCCC(=O)OC(CCCCCC)CCCCCC (stereo not shown) [Compound A1]	0.135
CCCCCCCC(C(=O)NCCCCCCCCCC(=O)OC(CCCCCC)CCCCCC)N(COC(=O)CCN(C)C)C(=O)CCCCCCCCCC(=O)OC(CCCCCC)CCCCCC (stereo not shown) [Compound B23]	0.214
